Provenance of the data: patent US7468457B2

target-or-test-system: RAR GAMMA (Homo sapiens, UniProt P13631)
Sequence (P13631 185-454 limits assumed): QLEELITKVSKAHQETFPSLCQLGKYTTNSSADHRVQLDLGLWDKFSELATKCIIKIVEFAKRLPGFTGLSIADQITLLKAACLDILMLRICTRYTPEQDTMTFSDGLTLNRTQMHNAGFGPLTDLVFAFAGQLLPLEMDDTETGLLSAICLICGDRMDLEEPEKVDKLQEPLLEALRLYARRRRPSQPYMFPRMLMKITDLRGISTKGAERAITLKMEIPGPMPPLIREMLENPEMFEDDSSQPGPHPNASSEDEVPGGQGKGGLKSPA
procedure-details: Transactivation test (luciferase reporter, HeLa stable transfectants), RAR gamma
settings: HeLa cells; inhibition at the reference agonist concentration that gives 80% activation
measured-endpoint: pIC50
Scale: negative log10 of molar concentration, which is what pIC50 denotes.

{"columns": ["compound", "pIC50"],
 "data": [
  ["Cc1ccc(-c2cc(C(=O)/C=C/c3ccc(C(=O)O)cc3)cc3c2C(C)(C)CCC3(C)C)cc1", 8.60],
  ["Cc1ccc(-c2cc(C(O)C#Cc3ccc(C(=O)O)cc3)cc3c2C(C)(C)CCC3(C)C)cc1 (stereo not shown)", 7.43],
  ["CC(C)(C)c1ccc(-c2cc(C(=O)/C=C/c3ccc(C(=O)O)cc3)cc3c2C(C)(C)CCC3(C)C)cc1", 9.20]
]}

**Query** What value of pIC50 on RAR GAMMA (Homo sapiens, UniProt P13631) does Cc1ccc(-c2cc(C(O)/C=C/c3ccc(C(=O)O)cc3)cc3c2C(C)(C)CCC3(C)C)cc1 (stereo not shown) have?
**Result** 7.12

---

Measured pKd, listed per entry.
target-or-test-system: RAR BETA (Homo sapiens, UniProt P10826)
Sequence (P10826 183-455 limits assumed): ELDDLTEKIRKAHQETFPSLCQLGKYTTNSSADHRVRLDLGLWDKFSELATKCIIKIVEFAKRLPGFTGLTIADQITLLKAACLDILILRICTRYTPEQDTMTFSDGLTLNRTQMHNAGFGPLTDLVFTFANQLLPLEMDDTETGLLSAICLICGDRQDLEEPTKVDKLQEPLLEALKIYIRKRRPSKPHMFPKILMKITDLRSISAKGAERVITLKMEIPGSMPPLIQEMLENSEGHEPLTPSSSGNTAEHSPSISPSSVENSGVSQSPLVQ
procedure-details: Transactivation test (luciferase reporter, HeLa stable transfectants), RAR beta
settings: HeLa cells; apparent Kd from Schild regression of crossed curves against reference agonist; read-out: RAR BETA Kd app
The read-out pKd is expressed as -log10 of concentration in moles per litre.

Below, 3 compounds whose answers are already recorded.
{"columns": ["compound", "data-value"],
 "data": [
  ["CC(C)(C)c1ccc(-c2cc(C(=O)/C=C/c3ccc(C(=O)O)cc3)cc3c2C(C)(C)CCC3(C)C)cc1", 8.40],
  ["Cc1ccc(-c2cc(C(O)C#Cc3ccc(C(=O)O)cc3)cc3c2C(C)(C)CCC3(C)C)cc1 (stereo not shown)", 7.22],
  ["Cc1ccc(-c2cc(C(=O)/C=C/c3ccc(C(=O)O)cc3)cc3c2C(C)(C)CCC3(C)C)cc1", 9.60]
]}

Moving on to the next compound.
**Query** Please provide the recorded pKd for Cc1ccc(-c2cc(C(O)/C=C/c3ccc(C(=O)O)cc3)cc3c2C(C)(C)CCC3(C)C)cc1 (stereo not shown) , tested on RAR BETA (Homo sapiens, UniProt P10826).
**Result** 6.30

---

Each entry below lists one item and its recorded IC50 value.
target-or-test-system: RAR BETA (Homo sapiens)
procedure-details: Transactivation test (luciferase reporter, HeLa stable transfectants), RAR beta
settings: HeLa cells; inhibition at the reference agonist concentration that gives 80% activation
A number alone suffices; assume nM.

**Query** Entry Cc1ccc(-c2cc(C(O)C#Cc3ccc(C(=O)O)cc3)cc3c2C(C)(C)CCC3(C)C)cc1 (stereo not shown) , system RAR BETA (Homo sapiens): what IC50 was measured?
**Result** 96

**Query** Next up: Cc1ccc(-c2cc(C(=O)/C=C/c3ccc(C(=O)O)cc3)cc3c2C(C)(C)CCC3(C)C)cc1
**Result** 0.4

**Query** Then what about the compound CC(C)(C)c1ccc(-c2cc(C(=O)/C=C/c3ccc(C(=O)O)cc3)cc3c2C(C)(C)CCC3(C)C)cc1 ?
**Result** 6.4

**Query** Field entry: Cc1ccc(-c2cc(C(O)/C=C/c3ccc(C(=O)O)cc3)cc3c2C(C)(C)CCC3(C)C)cc1 (stereo not shown)
**Result** 800
